TARGET_OF_ASSAY: T1, CH2-4 constant domains of human IgE linked to a transmembrane protein, on 293 cells (human, UniProt P01854-1 104-428)
T1 construct: domain: CH2-4 constant domains; also called human IgE-expressing 293 cells
PROTOCOL_TEXT: flow cytometry, 293 cells expressing human IgE CH2-4
We begin with a simple list: items and their reported pKd.
Reminder that pKd means the negative base-10 logarithm of the concentration expressed in mol/L.

Examples from the recorded data:
| BINDER | pKd |
| --- | --- |
| hzB10v23-NNT (Fc fusion, monomeric) VHH-Fc: EVQLLESGGGEVQPGGSLRLSCVASGLTFSSYNMGWLRQAPGKEREFVGLSGSSSTSTYYADSVKGRFTISRDNSKNTVYLQMNSLKAEDTAVYYCAARRLLSTYWSDRSWDFWGQGTQVTVEPGGPSVFLFPPKPKDTLMISRTPEVTCVVVDVSHEDPEVKFNWYVDGVEVHNAKTKPREEQYNSTYRVVSVLTVLHQDWLNGKEYKCKVSNKALPAPIEKTISKAKGQPREPQVYTLPPSRDELTKNQVNLTCLVKGFYPSDIAVEWESNGQPENNYKTTPPVLDSDGSFFLNSTLTVDKSRWQQGNVFSCSVMHEALHNHYTQKSLSLSPGK | 8.98 |
| hzB10v22-NNT (Fc fusion, monomeric) VHH-Fc: EVQLLESGGGEVQPGGSLRLSCVASGLTFSSYNMGWLRQAPGKEREFVGLSGSSSTSTYYADSVKGRFTISRDNSKNTVYLQMNSLRPEDTAVYYCAARRLLSTYWSDRSWDFWGQGTQVTVEPGGPSVFLFPPKPKDTLMISRTPEVTCVVVDVSHEDPEVKFNWYVDGVEVHNAKTKPREEQYNSTYRVVSVLTVLHQDWLNGKEYKCKVSNKALPAPIEKTISKAKGQPREPQVYTLPPSRDELTKNQVNLTCLVKGFYPSDIAVEWESNGQPENNYKTTPPVLDSDGSFFLNSTLTVDKSRWQQGNVFSCSVMHEALHNHYTQKSLSLSPGK | 8.62 |

Prompt: May I ask what pKd has been recorded for hzB10v25-NNT (Fc fusion, monomeric) VHH-Fc: EVQLLESGGGEVQPGGSLRLSCVASGLTFSSYNMGWLRQAPGKEREFVSLSGSSSTSTYYADSVKGRFTISRDNSKNTVYLQMNSLKPEDTAVYYCAARRLLSTYWSDRSWDFWGQGTQVTVEPGGPSVFLFPPKPKDTLMISRTPEVTCVVVDVSHEDPEVKFNWYVDGVEVHNAKTKPREEQYNSTYRVVSVLTVLHQDWLNGKEYKCKVSNKALPAPIEKTISKAKGQPREPQVYTLPPSRDELTKNQVNLTCLVKGFYPSDIAVEWESNGQPENNYKTTPPVLDSDGSFFLNSTLTVDKSRWQQGNVFSCSVMHEALHNHYTQKSLSLSPGK ?
Completion: 8.55

Prompt: Could you do the same for hzB10v26-NNT (Fc fusion, monomeric) VHH-Fc: EVQLLESGGGEVQPGGSLRLSCVASGLTFSSYNMGWLRQAPGKEREFVGMSGSSSTSTYYADSVKGRFTISRDNSKNTVYLQMNSLKPEDTAVYYCAARRMLSTYWSDRSWDFWGQGTQVTVKPGGPSVFLFPPKPKDTLMISRTPEVTCVVVDVSHEDPEVKFNWYVDGVEVHNAKTKPREEQYNSTYRVVSVLTVLHQDWLNGKEYKCKVSNKALPAPIEKTISKAKGQPREPQVYTLPPSRDELTKNQVNLTCLVKGFYPSDIAVEWESNGQPENNYKTTPPVLDSDGSFFLNSTLTVDKSRWQQGNVFSCSVMHEALHNHYTQKSLSLSPGK , please?
Completion: 8.84

Prompt: Could you do the same for hzB10v24-NNT (Fc fusion, monomeric) VHH-Fc: EVQLLESGGGEVQPGGSLRLSCVASGLTFSSYNMGWVRQAPGKEREFVGLSGSSSTSTYYADSVKGRFTISRDNSKNTVYLQMNSLKPEDTAVYYCAARRLLSTYWSDRSWDFWGQGTQVTVEPGGPSVFLFPPKPKDTLMISRTPEVTCVVVDVSHEDPEVKFNWYVDGVEVHNAKTKPREEQYNSTYRVVSVLTVLHQDWLNGKEYKCKVSNKALPAPIEKTISKAKGQPREPQVYTLPPSRDELTKNQVNLTCLVKGFYPSDIAVEWESNGQPENNYKTTPPVLDSDGSFFLNSTLTVDKSRWQQGNVFSCSVMHEALHNHYTQKSLSLSPGK , please?
Completion: 8.60
